- method notes: In vitro phosphorylation of compounds in rat whole blood
- Format: in vitro ADME
- condition: 37 °C, 60 min, 1–100 μmol/L
Below: a set of entries, each annotated with reported Vmax (phosphorylation).
reported metric: Vmax (phosphorylation) (pmol/min)

- compound: "CCCCCCCCc1ccc(CC[C@@H](N)CO)cc1.Cl [Compound 22]"
  reported metric: "Vmax (phosphorylation)"
  measured: 28.4
- compound: "CCCCCCCCc1ccc(CC[C@@](C)(N)CO)cc1.Cl [Compound 21]"
  reported metric: "Vmax (phosphorylation)"
  measured: 221
- compound: "CCc1nc(-c2ccc(-c3ccc(CC[C@@H](N)CO)cc3)cc2)co1.Cl [Compound 24]"
  reported metric: "Vmax (phosphorylation)"
  measured: 1.9
- compound: "CCc1nc(-c2ccc(-c3ccc(CC[C@@](C)(N)CO)cc3)cc2)co1.Cl [Compound 23]"
  reported metric: "Vmax (phosphorylation)"
  measured: 65.2
- compound: "CCCCCCCCc1ccc(CCC(N)(CO)CO)cc1 [FTY720, fingolimod, reference compound]"
  reported metric: "Vmax (phosphorylation)"
  measured: 63.4

Entry source: paper PMC7332640
